Exercise: state measured inhibition at 0.01 µg/mL for each of the compounds provided.
Test system: RSV A2 strain
Assay details: RSV A2 induced CPE in HEp2 cells
Format: cell-based
Test conditions: human respiratory syncytial virus, HEp-2, at 0.01 μg/mL
Output should be the measured figure followed by the unit it is expressed in.

Exercise: Requested field: inhibition at 0.01 µg/mL. Item: "O=C(Nc1c(F)cccc1F)c1cc2c(s1)-c1sccc1N(C(=O)c1ccc(NC(=O)c3cc4c(nc3N3CC5(CCOCC5)C3)CCC4)cc1)CC2"
Key: 97%

Exercise: Requested field: inhibition at 0.01 µg/mL. Item: "Cc1cnc(N2CCC3(CC2)COC3)c(C(=O)Nc2ccc(C(=O)N3CCc4cc(C(=O)Nc5c(F)cccc5F)sc4-c4sccc43)cc2)c1"
Key: 100%

Exercise: Requested field: inhibition at 0.01 µg/mL. Item: "O=C(Nc1c(F)cccc1F)c1cc2c(s1)-c1sccc1N(C(=O)c1ccc(NC(=O)c3cc4ccccc4nc3N3CC4(CCOCC4)C3)cc1)CC2"
Key: 94%

Exercise: Requested field: inhibition at 0.01 µg/mL. Item: "O=C(Nc1c(F)cccc1F)c1cc2c(s1)-c1sccc1N(C(=O)c1ccc(NC(=O)c3cccnc3N3CC4(CCOCC4)C3)cc1)CC2"
Key: 93%

Exercise: Requested field: inhibition at 0.01 µg/mL. Item: "Cc1cnc(N2CC3(CCOCC3)C2)c(C(=O)Nc2ccc(C(=O)N3CCc4cc(C(=O)Nc5ccc(F)cc5F)sc4-c4sccc43)cc2)c1"
Key: 97%

Exercise: Requested field: inhibition at 0.01 µg/mL. Item: "O=C(Nc1c(F)cccc1F)c1cc2c(s1)-c1sccc1N(C(=O)c1ccc(NC(=O)c3cccnc3N3CCC4(CC3)COC4)cc1)CC2"
Key: 100%

Exercise: Requested field: inhibition at 0.01 µg/mL. Item: "Cc1cc(C(=O)Nc2ccc(C(=O)N3CCc4cc(C(=O)Nc5c(F)cccc5F)sc4-c4sccc43)c(F)c2)c(N2CC3(CCOCC3)C2)nc1C"
Key: 96%

Exercise: Requested field: inhibition at 0.01 µg/mL. Item: "Cc1ccc(C(=O)Nc2ccc(C(=O)N3CCc4cc(C(=O)Nc5c(F)cccc5F)sc4-c4sccc43)c(F)c2)c(N2CC3(CCOCC3)C2)n1"
Key: 89%

Exercise: Requested field: inhibition at 0.01 µg/mL. Item: "Cc1cnc(N2CC3(CCOCC3)C2)c(C(=O)Nc2ccc(C(=O)N3CCc4cc(C(=O)Nc5ccccc5)sc4-c4sccc43)cc2)c1"
Key: 100%

Exercise: Requested field: inhibition at 0.01 µg/mL. Item: "Cc1cccc(F)c1NC(=O)c1cc2c(s1)-c1sccc1N(C(=O)c1ccc(NC(=O)c3cc4c(nc3N3CC5(CCOCC5)C3)CCC4)cc1)CC2"
Key: 98%

Exercise: Requested field: inhibition at 0.01 µg/mL. Item: "Cc1cnc(N2CC3(CCOCC3)C2)c(C(=O)Nc2ccc(C(=O)N3CCc4cc(C(=O)Nc5c(F)cc(F)cc5F)sc4-c4sccc43)cc2)c1"
Key: 92%

Exercise: Requested field: inhibition at 0.01 µg/mL. Item: "[2H]c1c([2H])c(C(=O)N2CCc3cc(C(=O)Nc4c(F)cccc4F)sc3-c3sccc32)c([2H])c([2H])c1NC(=O)c1cc(C)cnc1N1CC2(CCOCC2)C1"
Key: 95%

###

Test system: RSV A2 strain
Assay details: RSV A2 induced CPE in HEp2 cells
Type: cell-based
Test conditions: human respiratory syncytial virus, HEp-2, at 0.01 μg/mL
Readout name: inhibition at 0.01 µg/mL
Output should be the measured figure followed by the unit it is expressed in.

Exercise: Field: inhibition at 0.01 µg/mL (RSV A2 strain). Entry: "Cc1cnc(N2CC3(CCOCC3)C2)c(C(=O)Nc2ccc(C(=O)N3CCc4cc(C(=O)Nc5c(F)cccc5F)sc4-c4sccc43)cc2)c1"
Key: 100%

Exercise: Field: inhibition at 0.01 µg/mL (RSV A2 strain). Entry: "O=C(Nc1c(F)cccc1F)c1cc2c(s1)-c1sccc1N(C(=O)c1ccc(NC(=O)c3cc4c(nc3N3CC5(CCOCC5)C3)CCOC4)cc1)CC2"
Key: 100%

Exercise: Field: inhibition at 0.01 µg/mL (RSV A2 strain). Entry: "COc1cccc(F)c1NC(=O)c1cc2c(s1)-c1sccc1N(C(=O)c1ccc(NC(=O)c3cc(C)cnc3N3CC4(CCOCC4)C3)cc1)CC2"
Key: 96%

Exercise: Field: inhibition at 0.01 µg/mL (RSV A2 strain). Entry: "Cc1cnc(N2CC3(COC3)C2)c(C(=O)Nc2ccc(C(=O)N3CCc4cc(C(=O)Nc5c(F)cccc5F)sc4-c4sccc43)cc2)c1"
Key: 100%

Exercise: Field: inhibition at 0.01 µg/mL (RSV A2 strain). Entry: "Cc1cnc(N2CC3(CCOCC3)C2)c(C(=O)Nc2ccc(C(=O)N3CCc4cc(C(=O)Nc5ccccc5F)sc4-c4sccc43)cc2)c1"
Key: 100%

Exercise: Field: inhibition at 0.01 µg/mL (RSV A2 strain). Entry: "Cc1cnc(N2CC3(CCOCC3)C2)c(C(=O)Nc2ccc(C(=O)N3CCc4cc(C(=O)Nc5c(Cl)cccc5Cl)sc4-c4sccc43)cc2)c1"
Key: 77%

###

Assay details: Cell viability: resazurin assay
Format: cell-based
Test conditions: human, HEp2 cells
Description: HEp2 cells were seeded in 384-well plates (10^3/well/50 μL; BD Falcon Ref 353962) in FBS DMEM (5%, containing 2 mM L-glutamine and 1 mM sodium pyruvate) one day before experimentation. […] The fluorescence of each well at 545 nm (excitation) and 590 nm (emission) was determined using a multi-scanner (Clariostar: BMG Labtech). The percentage loss of cell viability was calculated for each well relative to vehicle (0.5% DMSO) treatment. […]
Readout name: CC50 at 5 days

Exercise: Requested field: CC50 at 5 days. Item: "O=C(Nc1c(F)cccc1F)c1cc2c(s1)-c1sccc1N(C(=O)c1ccc(NC(=O)c3cc4c(nc3N3CC5(CCOCC5)C3)CCOC4)cc1)CC2"
Key: > 13 µM

Exercise: Requested field: CC50 at 5 days. Item: "O=C(Nc1c(F)cccc1F)c1cc2c(s1)-c1sccc1N(C(=O)c1ccc(NC(=O)c3cccnc3N3CC4(COC4)C3)cc1)CC2"
Key: > 14.6 µM

Exercise: Requested field: CC50 at 5 days. Item: "O=C(Nc1c(F)cccc1F)c1cc2c(s1)-c1sccc1N(C(=O)c1ccc(NC(=O)c3cccnc3N3CC4(CCOCC4)C3)cc1F)CC2"
Key: > 13.7 µM

Exercise: Requested field: CC50 at 5 days. Item: "Cc1cnc(N2CC3(CCOCC3)C2)c(C(=O)Nc2ccc(C(=O)N3CCc4cc(C(=O)Nc5c(F)cccc5F)sc4-c4sccc43)c(F)c2)c1"
Key: > 13.4 µM

Exercise: Requested field: CC50 at 5 days. Item: "O=C(Nc1c(F)cccc1F)c1cc2c(s1)-c1sccc1N(C(=O)c1ccc(NC(=O)c3cc4c(nc3N3CC5(CCOCC5)C3)CCC4)cc1)CC2"
Key: > 13.3 µM

Exercise: Requested field: CC50 at 5 days. Item: "Cc1cnc(N2CC3(CCOCC3)C2)c(C(=O)Nc2ccc(C(=O)N3CCc4cc(C(=O)Nc5c(F)cc(F)cc5F)sc4-c4sccc43)cc2)c1"
Key: > 13.4 µM

Exercise: Requested field: CC50 at 5 days. Item: "Cc1cc(C(=O)Nc2ccc(C(=O)N3CCc4cc(C(=O)Nc5c(F)cccc5F)sc4-c4sccc43)c(F)c2)c(N2CC3(CCOCC3)C2)nc1C"
Key: > 13.2 µM

Exercise: Requested field: CC50 at 5 days. Item: "COc1ccc(C(=O)Nc2ccc(C(=O)N3CCc4cc(C(=O)Nc5c(F)cccc5F)sc4-c4sccc43)cc2)c(N2CC3(CCOCC3)C2)n1"
Key: > 13.5 µM

Exercise: Requested field: CC50 at 5 days. Item: "Cc1cnc(N2CC3(CCOCC3)C2)c(C(=O)Nc2ccc(C(=O)N3CCc4cc(C(=O)Nc5ccccc5F)sc4-c4sccc43)cc2)c1"
Key: > 14.1 µM

Exercise: Requested field: CC50 at 5 days. Item: "O=C(Nc1c(F)cccc1F)c1cc2c(s1)-c1sccc1N(C(=O)c1ccc(NC(=O)c3cccnc3N3CCC4(CC3)COC4)cc1)CC2"
Key: > 14 µM

Exercise: Requested field: CC50 at 5 days. Item: "Cc1cnc(N2CC3(CCOCC3)C2)c(C(=O)Nc2ccc(C(=O)N3CCc4cc(C(=O)Nc5c(F)cccc5Cl)sc4-c4sccc43)c(F)c2)c1"
Key: > 13.2 µM

Exercise: Requested field: CC50 at 5 days. Item: "Cc1cnc(N2CC3(CCOCC3)C2)c(C(=O)Nc2ccc(C(=O)N3CCc4cc(C(=O)Nc5c(O)cccc5F)sc4-c4sccc43)cc2)c1"
Key: > 13.8 µM
